Origin of the recorded values: ChEMBL document CHEMBL4689842

# Tested on: HEK-293T
# experiment description: Multiplex assay against HEK293T;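 further: share of the cells with healthy nuclei that show this phenotype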
# Type: toxicity, cell-based
# measurement conditions: human, 24 h, 10 µM, compound concentration 10 uM, replicate 2
Population Tubulin-Different-Phenotype (%) overview
property measured: Population Tubulin-Different-Phenotype (%)

[[record]]
compound = "OC1(c2ccc(Cl)cc2)CCN(Cc2c[nH]c3ccccc23)CC1"
assayed_system = "HEK-293T"
result = 84

[[record]]
compound = "CC(C)(O)CNc1ncc(-c2ccnc(Nc3ccnc(Cl)c3)n2)c(CC2CC2)n1"
assayed_system = "HEK-293T"
result = 40

[[record]]
compound = "Cc1nc(-c2cn3c(n2)-c2ccc(-c4cnn(C(C)(C)C(N)=O)c4)cc2OCC3)n(C(C)C)n1"
assayed_system = "HEK-293T"
result = 12

[[record]]
compound = "CCN(CC)CCCCNc1ncc2cc(-c3cc(OC)cc(OC)c3)c(NC(=O)NC(C)(C)C)nc2n1"
assayed_system = "HEK-293T"
result = 58

[[record]]
compound = "Cc1nc(-c2ccc(-c3ccc(C(=O)N4CCc5cc6c(cc54)C4(CCN(C)CC4)CO6)cc3)c(C)c2)no1"
assayed_system = "HEK-293T"
result = 93

[[record]]
compound = "CC[C@H](C)C(=O)O[C@H]1C[C@@H](C)C=C2C=C[C@H](C)[C@H](CC[C@@H]3C[C@@H](O)CC(=O)O3)[C@H]21"
assayed_system = "HEK-293T"
result = 20

[[record]]
compound = "c1cn2cc(-c3ccc4cn[nH]c4c3)nc(Nc3ccc(N4CCOCC4)cc3)c2n1"
assayed_system = "HEK-293T"
result = 93

[[record]]
compound = "Cc1nc(Nc2n[nH]c3c2CN(C(=O)N[C@H](CN(C)C)c2ccccc2)C3(C)C)c2sccc2n1"
assayed_system = "HEK-293T"
result = 89

[[record]]
compound = "CN(C)C(=O)N[C@H]1CC[C@H](CCN2CCN(c3cccc(Cl)c3Cl)CC2)CC1.Cl [CARIPRAZINE HYDROCHLORIDE]"
assayed_system = "HEK-293T"
result = 96

[[record]]
compound = "Nc1c(C(=O)NCc2ccc(C(=O)NCCCC3CCCCC3)cc2)cnn1-c1ccccc1"
assayed_system = "HEK-293T"
result = 93

[[record]]
compound = "Cc1sc2c(c1C)C(c1ccc(Cl)cc1)=N[C@@H](CC(=O)OC(C)(C)C)c1nnc(C)n1-2"
assayed_system = "HEK-293T"
result = 0

[[record]]
compound = "C=CC(=O)Nc1cc2c(Nc3ccc(F)c(Cl)c3)ncnc2cc1OCCCN1CCOCC1.Cl.Cl [CANERTINIB DIHYDROCHLORIDE]"
assayed_system = "HEK-293T"
result = 8

[[record]]
compound = "CN1CCN(CCOc2cc(OC3CCOCC3)c3c(Nc4c(Cl)ccc5c4OCO5)ncnc3c2)CC1"
assayed_system = "HEK-293T"
result = 85

[[record]]
compound = "COc1cc2nccc(Oc3ccc(NC(=O)Nc4cc(C)on4)c(Cl)c3)c2cc1OC.O"
assayed_system = "HEK-293T"
result = 97

[[record]]
compound = "Cc1cc(C)cc(-c2cnc3cc(Cl)c(-c4cccc(O)c4)cc3c2OCCCN)c1"
assayed_system = "HEK-293T"
result = 75

[[record]]
compound = "Cl.N#Cc1ccc2[nH]cc(CCCCN3CCN(c4ccc5oc(C(N)=O)cc5c4)CC3)c2c1 [VILAZODONE HYDROCHLORIDE]"
assayed_system = "HEK-293T"
result = 94


* * *

# System: Fibroblast
# experiment description: Multiplex assay against human fibroblast
# Assay type: toxicity, cell-based
# measurement conditions: 12 h, 1 µM, compound concentration 1 uM, replicate 2
Decision: Population Membrane Permeable-Phenotype (%) >= 5% yields 1, all other cases yield 0.

[[record]]
molecule = "Cl.N#Cc1ccc2[nH]cc(CCCCN3CCN(c4ccc5oc(C(N)=O)cc5c4)CC3)c2c1 [VILAZODONE HYDROCHLORIDE]"
assigned_category = 1

[[record]]
molecule = "CC(C)NCC(O)COc1ccc(CCOCC2CC2)cc1.Cl (stereo not drawn) [BETAXOLOL HYDROCHLORIDE]"
assigned_category = 1

[[record]]
molecule = "CNc1nc(NCc2ccc(NS(C)(=O)=O)cc2Cl)cc(-c2ccccn2)n1"
assigned_category = 0

[[record]]
molecule = "CN(C)CC#Cc1ccc(OCCCc2sc(N3CCc4cccc(C(=O)Nc5nc6ccccc6s5)c4C3)nc2C(=O)O)c(F)c1"
assigned_category = 1

[[record]]
molecule = "Cc1[nH]c(/C=C2\\C(=O)Nc3ccc(S(=O)(=O)N(C)c4cccc(Cl)c4)cc32)c(C)c1C(=O)N1CCN(C)CC1"
assigned_category = 1

[[record]]
molecule = "COc1cc(-n2cnc3cc(-c4ccc(Cl)cc4)sc3c2=O)ccc1OCCN1CCCC1"
assigned_category = 1

[[record]]
molecule = "C[C@@H](NCCCc1cccc(C(F)(F)F)c1)c1cccc2ccccc12.Cl [CINACALCET HYDROCHLORIDE]"
assigned_category = 1

[[record]]
molecule = "O=C1NCN(c2ccccc2)C12CCN(CCCOc1ccc(F)cc1)CC2 [SPIRAMIDE]"
assigned_category = 0

[[record]]
molecule = "Cc1nc(-c2cn3c(n2)-c2ccc(-c4cnn(C(C)(C)C(N)=O)c4)cc2OCC3)n(C(C)C)n1"
assigned_category = 1

[[record]]
molecule = "COc1ncc(-c2ccc3nccc(-c4ccnnc4)c3c2)cc1NS(=O)(=O)c1ccc(F)cc1F"
assigned_category = 1

[[record]]
molecule = "CN1CCCC(n2nc(Cc3ccc(Cl)cc3)c3ccccc3c2=O)CC1.Cl (stereo not drawn) [AZELASTINE HYDROCHLORIDE]"
assigned_category = 1

[[record]]
molecule = "NC(=O)Nc1cc(-c2cccc(F)c2)sc1C(=O)N[C@H]1CCCNC1"
assigned_category = 1

[[record]]
molecule = "Cc1cc(C)cc(-c2cnc3cc(Cl)c(-c4cccc(O)c4)cc3c2OCCCN)c1"
assigned_category = 0

[[record]]
molecule = "CN1CCN(CCOc2cc(OC3CCOCC3)c3c(Nc4c(Cl)ccc5c4OCO5)ncnc3c2)CC1"
assigned_category = 0

[[record]]
molecule = "CN1CCC[C@@H]1CCO[C@](C)(c1ccccc1)c1ccc(Cl)cc1.O=C(O)/C=C/C(=O)O [CLEMASTINE FUMARATE]"
assigned_category = 0

[[record]]
molecule = "OC1(c2ccc(Cl)cc2)CCN(Cc2c[nH]c3ccccc23)CC1"
assigned_category = 0

[[record]]
molecule = "CC[C@H](C)C(=O)O[C@H]1C[C@@H](C)C=C2C=C[C@H](C)[C@H](CC[C@@H]3C[C@@H](O)CC(=O)O3)[C@H]21"
assigned_category = 0

[[record]]
molecule = "Cc1nc(-c2ccc(-c3ccc(C(=O)N4CCc5cc6c(cc54)C4(CCN(C)CC4)CO6)cc3)c(C)c2)no1"
assigned_category = 1

[[record]]
molecule = "Cc1csc2c(N[C@@H](C)CN3CCN(S(=O)(=O)c4ccc(Cl)c(Cl)c4)CC3)ncnc12"
assigned_category = 1

[[record]]
molecule = "CN1CCN(c2ccc(OC(F)(F)F)c(Nc3ncc4c(n3)-c3c(c(C(N)=O)nn3CCO)CC4)c2)CC1"
assigned_category = 0

[[record]]
molecule = "Cc1nc(Nc2n[nH]c3c2CN(C(=O)N[C@H](CN(C)C)c2ccccc2)C3(C)C)c2sccc2n1"
assigned_category = 0

[[record]]
molecule = "C=CC(=O)Nc1ccc2ncnc(Nc3ccc(OCc4cccc(F)c4)c(Cl)c3)c2c1.Cc1ccc(S(=O)(=O)O)cc1"
assigned_category = 0

[[record]]
molecule = "Cn1cc(-c2[nH]c3cc(NC(=O)[C@H](N)C4CCCCC4)cc4c3c2C=NNC4=O)cn1"
assigned_category = 0

[[record]]
molecule = "CN(C)C(=O)N[C@H]1CC[C@H](CCN2CCN(c3cccc(Cl)c3Cl)CC2)CC1.Cl [CARIPRAZINE HYDROCHLORIDE]"
assigned_category = 1

[[record]]
molecule = "CN(C)C(=O)/C(C#N)=C/c1ccc(-c2nc3cnc4[nH]ccc4c3n2C2CCCCC2)o1"
assigned_category = 0

[[record]]
molecule = "C=CC(=O)Nc1cccc(C(=O)Nc2ccc(Nc3cc(-c4[nH]c(SC)nc4C)ccn3)cc2)c1"
assigned_category = 0

[[record]]
molecule = "COc1cccc([C@@H](C)NCCCc2ccccc2Cl)c1.Cl [TECALCET HYDROCHLORIDE]"
assigned_category = 1

[[record]]
molecule = "C[C@@]1(C(=O)Nc2ccc(F)nc2)CCCN1c1nc(Nc2cc(C3CC3)n[nH]2)c2cccn2n1"
assigned_category = 1

[[record]]
molecule = "c1cn2cc(-c3ccc4cn[nH]c4c3)nc(Nc3ccc(N4CCOCC4)cc3)c2n1"
assigned_category = 1

[[record]]
molecule = "CCN(CC)CCCCNc1ncc2cc(-c3cc(OC)cc(OC)c3)c(NC(=O)NC(C)(C)C)nc2n1"
assigned_category = 1

[[record]]
molecule = "C=CC(=O)Nc1cc2c(Nc3ccc(F)c(Cl)c3)ncnc2cc1OCCCN1CCOCC1.Cl.Cl [CANERTINIB DIHYDROCHLORIDE]"
assigned_category = 1

